molecular target: UniProt P43166; test: Inhibition of human recombinant CAH7
Sequence (P43166 whole entry): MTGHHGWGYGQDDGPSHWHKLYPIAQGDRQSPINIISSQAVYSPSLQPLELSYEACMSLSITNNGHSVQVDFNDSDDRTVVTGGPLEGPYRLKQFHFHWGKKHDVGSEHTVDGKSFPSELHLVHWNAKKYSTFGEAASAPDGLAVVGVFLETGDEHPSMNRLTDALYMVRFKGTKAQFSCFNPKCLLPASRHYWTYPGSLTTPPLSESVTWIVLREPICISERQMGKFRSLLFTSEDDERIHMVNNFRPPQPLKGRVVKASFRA
Value Kind: Ki (nM)
The figure you give is taken to be in nM; do not add the unit.

Name the reported Ki value associated with the molecule COc1cc2c(cc1OC)C(C)N(S(N)(=O)=O)CC2 (stereo unspecified)
6.4

Where these numbers come from: ChEMBL document CHEMBL1765058
